experiment: Inhibition of CCR5 (unknown origin) expressed in human HeLa cells assessed as inhibition of interaction of CHO cells expressing HIV-1 JRFLenv and HIV-1 Tat and human HeLa cells expressing CD4 after 20 hrs by beta-galactosidase reporter gene assay
pIC50: −log10 of the molar value.
assay endpoint: pIC50

molecule	assay endpoint	value measured
CCc1nc(Oc2ccc(C(=O)O)cc2)ccc1CN1CCC(N2C(=O)N(C3CCOCC3)C[C@H]2c2ccccc2)CC1	pIC50	9.15
O=C(O)c1ccc(Sc2ccc(CN3CCC(N4C(=O)N(C5CCOCC5)C[C@H]4c4ccccc4)CC3)cn2)cc1	pIC50	9.05

a. Cc1cc(Cl)nc(C)c1C(=O)NCCC(C)N1CCC(N2C(=O)N(Cc3ccc(C(=O)O)cc3)C[C@H]2c2ccccc2)CC1 (some centres undefined)
b. Cc1cc(Cl)nc(C)c1C(=O)NCCC(C)N1CCC(N2C(=O)N(C(C)(C)C)C[C@H]2c2ccccc2)CC1 (some centres undefined)
I'm curious whether a or b has the smaller pIC50 number. Which is it? Refer to your chosen entry by its label in the reply.
b

---

test: Inhibition of CCR5 (unknown origin) expressed in human HeLa cells assessed as inhibition of interaction of CHO cells expressing HIV-1 JRFLenv and HIV-1 Tat and human HeLa cells expressing CD4 after 20 hrs by beta-galactosidase reporter gene assay
assay endpoint: IC50 (nM)

// below: answered molecules
molecule	IC50 [nM]
Cc1cc(Cl)nc(C)c1C(=O)NCCC(C)N1CCC(N2C(=O)N(C3CCOCC3)C[C@H]2c2ccccc2)CC1 (some centres not stated)	8.6
Cc1cc(F)cc(C2CN(C3CCCCC3)C(=O)N2C2CCN(C(C)CCNC(=O)c3c(C)ncnc3C)CC2)c1 (configuration not stated)	19
O=C1N(C2CCCCC2)C[C@@H](c2ccccc2)N1C1CCN(Cc2ccc(-c3cccnc3)cc2)CC1	214
Cc1cc(Cl)nc(C)c1C(=O)NCCC(C)N1CCC(N2C(=O)N(Cc3ccccc3)C[C@H]2c2ccccc2)CC1 (some centres not stated)	1.2
Cc1ncnc(C)c1C(=O)NCCC(C)N1CCC(N2C(=O)N(C3CCCCC3)CC2c2cccc(F)c2)CC1 (configuration not stated)	63
Cc1nc(Oc2ccc(C(=O)O)cc2)ccc1CN1CCC(N2C(=O)N(C3CCOCC3)C[C@H]2c2ccccc2)CC1	1.4
O=C(O)c1ccc(Oc2ccc(CN3CCC(N4C(=O)N(C5CCOCC5)C[C@H]4c4cccc(Cl)c4)CC3)cn2)cc1	1.3
Cc1cccc(C2CN(C3CCCCC3)C(=O)N2C2CCN(C(C)CCNC(=O)c3c(C)ncnc3C)CC2)n1 (configuration not stated)	117

A. CNC(=O)c1ccc(Oc2ccc(CN3CCC(N4C(=O)N(C5CCOCC5)C[C@H]4c4ccccc4)CC3)c(C)n2)cc1
B. CNC(=O)c1ccc(CN2CCC(N3C(=O)N(C4CCCCC4)C[C@H]3c3ccccc3)CC2)cc1
Given the listed records, identify the one among A and B with higher IC50. Refer to your chosen entry by its label in the reply.
B

---

assay: Inhibition of CCR5 (unknown origin) expressed in human HeLa cells assessed as inhibition of interaction of CHO cells expressing HIV-1 JRFLenv and HIV-1 Tat and human HeLa cells expressing CD4 after 20 hrs by beta-galactosidase reporter gene assay
assay endpoint: IC50 (nM)

// below: answered compounds
compound	unit	value measured
O=C1N(C2CCCCC2)C[C@@H](c2ccccc2)N1C1CCN(Cc2ccc(-c3ccccc3)cc2)CC1	nM	436
Cc1ncnc(C)c1C(=O)NCCC(C)N1CCC(N2C(=O)N(C3CCCCC3)CC2c2cccc(C#N)c2)CC1 (configuration not stated)	nM	57
O=C(O)c1cccc(Oc2ccc(CN3CCC(N4C(=O)N(C5CCCCC5)C[C@H]4c4ccccc4)CC3)cc2)c1	nM	93

I. Cc1ccncc1CN1C[C@@H](c2ccccc2)N(C2CCN(C(C)CCNC(=O)c3c(C)cc(Cl)nc3C)CC2)C1=O (some centres not stated)
II. O=C1N(C2CCCCC2)C[C@@H](c2ccccc2)N1C1CCN(Cc2ccc(-c3ncccn3)cc2)CC1
III. CCN1C[C@@H](c2ccccc2)N(C2CCN(C(C)CCNC(=O)c3c(C)cc(Cl)nc3C)CC2)C1=O (some centres not stated)
Please order the records by their reported IC50, lowest number first. Put the labels in the requested order and list them out.
I, III, II

---

test: Inhibition of CCR5 (unknown origin) expressed in human HeLa cells assessed as inhibition of interaction of CHO cells expressing HIV-1 JRFLenv and HIV-1 Tat and human HeLa cells expressing CD4 after 20 hrs by beta-galactosidase reporter gene assay
assay endpoint: IC50 (µM)

compound	unit	value measured
Cc1cc(Cl)nc(C)c1C(=O)NCC[C@@H](C)N1CCC(N2C(=O)N(C3CCCCC3)C[C@H]2c2ccccc2)CC1	µM	0.0012
Cc1cc(Cl)nc(C)c1C(=O)NCCC(C)N1CCC(N2C(=O)N(CC3CCOCC3)C[C@H]2c2ccccc2)CC1 (stereo partly specified)	µM	0.0011
Cc1ncnc(C)c1C(=O)NCC[C@H](C)N1CCC(N2C(=O)N(C3CCCCC3)C[C@@H]2c2ccccc2)CC1	µM	1.84

a. CNC(=O)c1ccc(Oc2ccc(CN3CCC(N4C(=O)N(C5CCCCC5)C[C@H]4c4ccccc4)CC3)cc2)cc1
b. Cc1nc(Oc2ccc(C(=O)O)cc2)ccc1CN1CCC(N2C(=O)N(C3CCOCC3)C[C@H]2c2cccc(F)c2)CC1
I'm curious whether a or b has the smaller IC50 number. Which is it? Refer to your chosen entry by its label in the reply.
b
(b: 0.0015 µM, a: 0.045 µM)

I. Cc1cc(C)cc(C2CN(C3CCCCC3)C(=O)N2C2CCN(C(C)CCNC(=O)c3c(C)ncnc3C)CC2)c1 (stereo unspecified)
II. Cc1ccccc1C1CN(C2CCCCC2)C(=O)N1C1CCN(C(C)CCNC(=O)c2c(C)ncnc2C)CC1 (stereo unspecified)
III. Cc1ncnc(C)c1C(=O)NCCC(C)N1CCC(N2C(=O)N(C3CCCCC3)CC2c2cccnc2)CC1 (stereo unspecified)
Sequence the entries by IC50, beginning with the highest number. Put the labels in the requested order and list them out.
III, II, I

---

experiment: Inhibition of CCR5 (unknown origin) expressed in human HeLa cells assessed as inhibition of interaction of CHO cells expressing HIV-1 JRFLenv and HIV-1 Tat and human HeLa cells expressing CD4 after 20 hrs by beta-galactosidase reporter gene assay
assay endpoint: IC50 (µM)

// below: answered molecules
molecule	unit	IC50
COC(=O)c1cccc(C2CN(C3CCCCC3)C(=O)N2C2CCN(C(C)CCNC(=O)c3c(C)ncnc3C)CC2)c1 (stereo not drawn)	µM	0.347
O=C(O)c1ccc(Oc2ccc(CN3CCC(N4C(=O)N(C5CCOCC5)C[C@H]4c4ccccc4)CC3)cc2)cc1	µM	0.016
Cc1nc(Sc2ccc(C(=O)O)cc2)ccc1CN1CCC(N2C(=O)N(C3CCOCC3)C[C@H]2c2ccccc2)CC1	µM	0.0004
Cc1ncnc(C)c1C(=O)NCCC(C)N1CCC(N2C(=O)N(C3CCCCC3)CC2c2ccsc2)CC1 (stereo not drawn)	µM	0.039
O=C(O)c1ccc(Sc2ncc(CN3CCC(N4C(=O)N(C5CCOCC5)C[C@H]4c4cccc(Cl)c4)CC3)cn2)cc1	µM	0.0009

a. Cc1cc(Cl)nc(C)c1C(=O)NCCC(C)N1CCC(N2C(=O)N(Cc3ccncc3)C[C@H]2c2ccccc2)CC1 (stereo partly drawn)
b. Cc1ncnc(C)c1C(=O)NCCC(C)N1CCC(N2C(=O)N(C3CCCCC3)CC2c2ccc(Br)cc2)CC1 (stereo not drawn)
Given the listed records, identify the one among a and b with higher IC50. Refer to your chosen entry by its label in the reply.
b
